In this section we review reported IC50 values for a set of compounds.
Test system: MDA-MB-435
Experiment: NCI human cancer cell line screen (COMPARE screening), Breast MDA-MB-435
Type: cell-based
Conditions: Homo sapiens; MDA-MB-435; concentration causing 50% growth inhibition; read-out: Cytotoxicity (G150 in μM) Breast MDA-MB-435

Example results:
COC(=O)Cn1c2c(c3ccccc3c1=O)C(=O)c1ccccc1-2	> 100 µM
O=C(O)CCCn1c2c(c3ccccc3c1=O)C(=O)c1ccccc1-2	> 100 µM
O=C1c2ccccc2-c2c1c1ccccc1c(=O)n2CCCCO	> 100 µM

IC50 reported for this compound O=C1c2ccccc2-c2oc(=O)c3ccccc3c21 [Compound 2, benz[d]indeno[1,2-b]pyran-5,11-dione] : > 100 µM

IC50 reported for this compound CC[n+]1cc2cc(OC)c(OC)cc2c2c1-c1cc3c(cc1C2)OCO3 : 14 µM

IC50 reported for this compound CCCCn1c2c(c3ccccc3c1=O)C(=O)c1cc3c(cc1-2)OCO3 [Compound 13b] : > 100 µM

IC50 reported for this compound COc1cc2c3c(n(CCCCO)c(=O)c2cc1OC)-c1cc2c(cc1C3=O)OCO2 [Compound 19a] : 10 µM

IC50 reported for this compound Cn1c2c(c3ccccc3c1=O)C(=O)c1cc(OCc3ccccc3)c(OCc3ccccc3)cc1-2 [Compound 13g] : > 100 µM

IC50 reported for this compound CCCCn1c2c(c3cc(OC)c(OC)cc3c1=O)C(=O)c1cc3c(cc1-2)OCO3 [Compound 13d] : > 100 µM

IC50 reported for this compound CCn1c2c(c3cc(OC)c(OC)cc3c1=O)C(=O)c1cc3c(cc1-2)OCO3 [Compound 13k] : 2.6 µM

IC50 reported for this compound CCN1C(=O)c2cc(OC)c(OC)cc2[C@@H]2[C@H]1c1cc3c(cc1[C@@H]2O)OCO3 : > 100 µM

IC50 reported for this compound O=C1c2ccccc2-c2c1c1ccccc1c(=O)n2C1CC1 : > 100 µM

IC50 reported for this compound COc1cc2c3c(n(C)c(=O)c2cc1OC)-c1cc(OCc2ccccc2)c(OCc2ccccc2)cc1C3=O [Compound 13h] : > 100 µM

IC50 reported for this compound CCN1Cc2cc(OC)c(OC)cc2[C@@H]2[C@H]1c1cc3c(cc1[C@@H]2O)OCO3 : 25 µM

IC50 reported for this compound COc1cc2c3c(n(Cc4ccccc4)c(=O)c2cc1OC)-c1cc2c(cc1C3=O)OCO2 [Compound 13e] : > 100 µM

IC50 reported for this compound COc1ccc(Cn2c3c(c4cc(OC)c(OC)cc4c2=O)C(=O)c2cc4c(cc2-3)OCO4)cc1 [Compound 13f] : > 100 µM

* * *

Tested on: HOP-62
Assay: NCI human cancer cell line screen (COMPARE screening), Lung HOP-62
Assay type: cell-based
In this section we review reported pIC50 values for a set of molecules.
Entry type: numeric. Quantity: pIC50, the -log10 of concentration in molar units.

Example results:
O=C1c2ccccc2-c2c1c1ccccc1c(=O)n2CCCCCO	5.36
C=CCN1C(=O)c2cc(OC)c(OC)cc2[C@H]2C(=O)c3cc4c(cc3[C@H]21)OCO4 (relative stereo)	6.44

pIC50 reported for this molecule C=CCn1c2c(c3cc(OC)c(OC)cc3c1=O)C(=O)c1cc3c(cc1-2)OCO3 [Compound 13c] : 5.47

pIC50 reported for this molecule CCN1C(=O)c2cc(OC)c(OC)cc2[C@H]2C(=O)c3cc4c(cc3[C@H]21)OCO4 (relative stereo) : 6.54

pIC50 reported for this molecule COc1cc2c(cc1OC)[C@H]1C(=O)c3cc4c(cc3[C@H]1N(C)C2=O)OCO4 (relative stereo) : 5.03
